target: Estrogen receptor beta (Homo sapiens) (UniProt Q92731); assay: Binding affinity for Estrogen receptor beta compared to estradiol (100%)
Sequence (Q92731 whole entry): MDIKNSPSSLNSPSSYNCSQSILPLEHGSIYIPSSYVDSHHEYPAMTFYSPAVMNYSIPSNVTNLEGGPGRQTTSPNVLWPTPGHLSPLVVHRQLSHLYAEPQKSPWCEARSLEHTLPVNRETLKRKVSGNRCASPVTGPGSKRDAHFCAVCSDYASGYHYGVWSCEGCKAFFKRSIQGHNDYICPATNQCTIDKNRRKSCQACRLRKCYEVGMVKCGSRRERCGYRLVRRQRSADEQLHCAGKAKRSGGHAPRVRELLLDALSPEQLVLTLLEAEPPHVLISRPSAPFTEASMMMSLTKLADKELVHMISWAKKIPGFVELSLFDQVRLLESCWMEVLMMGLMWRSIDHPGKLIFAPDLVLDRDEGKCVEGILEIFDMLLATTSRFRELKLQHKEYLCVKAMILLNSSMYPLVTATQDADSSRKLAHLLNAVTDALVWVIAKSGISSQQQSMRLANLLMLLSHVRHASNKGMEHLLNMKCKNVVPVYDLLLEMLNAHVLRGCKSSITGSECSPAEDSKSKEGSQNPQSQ
I'd be grateful if you could share measured Binding affinity for these entries.
Answers are plain numbers, in %.

Guide cases for Binding affinity, answers given:
INSERT INTO results (molecule_smiles, measure_name, result) VALUES
  ('Oc1ccc(-c2nn3cccnc3c2-c2ccc(O)cc2)cc1', 'Binding affinity', 0.1),
  ('Oc1ccc(-c2nn3cc(O)cnc3c2-c2ccc(O)cc2)cc1', 'Binding affinity', 0.03),
  ('Oc1ccc(-c2nn3cccnc3c2-c2ccccc2)cc1', 'Binding affinity', 0.05),
  ('Oc1cnc2c(-c3ccccc3)c(-c3ccccc3)nn2c1', 'Binding affinity', 0.005),
  ('Oc1ccc(-c2c(-c3ccccc3)nn3cc(O)cnc23)cc1', 'Binding affinity', 0.006);

# batch: return Binding affinity for each of the 2 compounds below
1. Oc1ccc(-c2c(-c3ccccc3)nn3cccnc23)cc1
2. Oc1ccc(-c2nn3cc(O)cnc3c2-c2ccccc2)cc1

Return:
[0.02, 0.01]

---

For each entry below, report its Binding affinity value.
target: Estrogen receptor (Homo sapiens); assay: Binding affinity for Estrogen receptor alpha compared to estradiol (100%)
One number for each entry, in %.

Items follow; give Binding affinity for each.
1. Oc1ccc(-c2nn3cc(O)cnc3c2-c2ccccc2)cc1
2. Oc1ccc(-c2c(-c3ccccc3)nn3cccnc23)cc1
3. Oc1ccc(-c2nn3cccnc3c2-c2ccccc2)cc1
4. Oc1ccc(-c2nn3cccnc3c2-c2ccc(O)cc2)cc1
5. Oc1ccc(-c2nn3cc(O)cnc3c2-c2ccc(O)cc2)cc1

Return:
1: 0.003; 2: 0.007; 3: 0.01; 4: 0.004; 5: 0.004
